Where these numbers come from: ChEMBL document CHEMBL3091322

# Species on record: Rattus norvegicus
# protocol.text: Displacement of [3H]nisoxetine from Sprague-Dawley rat brain frontal cortex NET at 10 uM by scintillation counting analysis
# Type: tissue-based
Threshold rule: inhibition greater than or equal to 30% is Met; below that, Not met.

Check this molecule for inhibition at or above 30%: CN(C)CCCC(O)(c1ccc(Br)cc1)c1ccc(C#N)cc1CO (racemic)
Not met

Further cases:
Check this molecule for inhibition at or above 30%: CN(CCCC1(c2ccc(F)cc2)OCc2cc(C#N)ccc21)CC1CC1 (racemic)
Met

Now the same for CN(CCCC1(c2ccc(F)cc2)OCc2cc(C#N)ccc21)Cc1csc2ccccc12 (racemic)
Met

Now the same for COC(=O)c1ccc2c(c1)COC2(CCCN(C)C)c1ccc(F)cc1 (racemic)
Met

Now the same for CN(C)CCCC1(c2ccc(/C=C/c3ccccc3)cc2)OCc2cc(C#N)ccc21 (racemic)
Met

* * *

# inhibition per record follows
# Species on record: Rattus norvegicus
# protocol.text: Displacement of [3H]nisoxetine from Sprague-Dawley rat brain frontal cortex NET at 10 uM by scintillation counting analysis
# Assay type: tissue-based
Kindly provide the numeric value in % only, without the unit symbol.

Examples from the recorded data:
Reported inhibition for CN(C)CCCC1(c2ccc(F)cc2)OCc2cc(CN3CCN(c4cccc(Cl)c4Cl)CC3)ccc21 (racemic) : what is it?
19.7

Now the same for CN(C)CCCC1(c2ccc(Br)cc2)OCc2cc(C#N)ccc21 (racemic)
45

Now the same for CN(C)CCCC1(c2ccc(F)cc2)OCc2cc(CNCc3ccc4c(c3)COC4(CCCN(C)C)c3ccc(F)cc3)ccc21 (racemic)
66.9

Here's the next entry for you.
Reported inhibition for COc1ccccc1N1CCN(Cc2ccc3c(c2)COC3(CCCN(C)C)c2ccc(F)cc2)CC1 (racemic) : what is it?
39.7

* * *

# target.or.system: Sodium-dependent serotonin transporter (Rattus norvegicus, UniProt P31652)
# Sequence (P31652 whole entry): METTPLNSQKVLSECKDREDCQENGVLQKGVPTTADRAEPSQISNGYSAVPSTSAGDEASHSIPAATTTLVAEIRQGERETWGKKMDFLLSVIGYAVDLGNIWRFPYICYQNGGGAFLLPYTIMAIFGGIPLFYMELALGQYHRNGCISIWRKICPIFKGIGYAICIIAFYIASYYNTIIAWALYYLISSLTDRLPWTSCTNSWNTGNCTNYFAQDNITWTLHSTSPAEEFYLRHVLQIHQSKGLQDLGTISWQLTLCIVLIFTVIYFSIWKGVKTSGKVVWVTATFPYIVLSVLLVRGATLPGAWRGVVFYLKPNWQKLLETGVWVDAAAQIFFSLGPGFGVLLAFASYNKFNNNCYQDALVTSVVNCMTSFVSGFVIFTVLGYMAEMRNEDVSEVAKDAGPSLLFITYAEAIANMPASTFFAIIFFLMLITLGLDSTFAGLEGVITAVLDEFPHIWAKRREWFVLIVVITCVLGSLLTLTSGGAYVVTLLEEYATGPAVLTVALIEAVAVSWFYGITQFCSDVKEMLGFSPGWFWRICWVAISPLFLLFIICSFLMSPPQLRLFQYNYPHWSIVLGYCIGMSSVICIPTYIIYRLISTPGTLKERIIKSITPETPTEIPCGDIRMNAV
# protocol.text: Displacement of [3H]citalopram from Sprague-Dawley rat brain stem SERT site S1 by scintillation counting analysis
Could you mark each record true (1) if its Ki falls strictly under 40 nM, and false (0) if it equals or exceeds it?

Answered cases to consult:
# strict comparison: is reported Ki < 40 nM? input = CCCCN(C)CCCC1(c2ccc(F)cc2)OCc2cc(C#N)ccc21 (racemic)
false (0)

Now the same for CN(CCCC1(c2ccc(F)cc2)OCc2cc(C#N)ccc21)Cc1ccc2c(c1)Cc1ccccc1-2 (racemic)
true (1)

Now the same for CN(C)CCCC1(c2ccc(F)cc2)OCc2cc(CN3CCOCC3)ccc21 (racemic)
true (1)

Further cases:
# strict comparison: is reported Ki < 40 nM? input = CN(C)CCCC1(c2ccc(F)cc2)OCc2cc(CNCc3ccc4c(c3)Cc3ccccc3-4)ccc21 (racemic)
true (1)

Now the same for CCCN(C)CCCC1(c2ccc(F)cc2)OCc2cc(C#N)ccc21 (racemic)
false (0)

* * *

# protocol.text: Displacement of [3H]nisoxetine from Sprague-Dawley rat brain frontal cortex NET by scintillation counting analysis
# Format: tissue-based
# pKi per record follows
As a rule, pKi stands for the negative log10 of the concentration, concentration in M.

Reported pKi for CN(C)CCCC1(c2ccc(-c3cccc(C#N)c3)cc2)OCc2cc(C#N)ccc21 (racemic) : what is it?
5.55

Now the same for CN(C)CCCC1(c2ccc(F)cc2)OCc2cc(-c3ccc([N+](=O)[O-])cc3)ccc21 (racemic)
5.08

Now the same for CN(CCCC1(c2ccc(F)cc2)OCc2cc(C#N)ccc21)Cc1ccc(N(C)C)cc1 (racemic)
5.86
